Data provenance: patent US20250136606A1

Target: TRPML2 (Homo sapiens)
Construct: expressed in transfected cells
Sequence (Q8IZK6 1-566): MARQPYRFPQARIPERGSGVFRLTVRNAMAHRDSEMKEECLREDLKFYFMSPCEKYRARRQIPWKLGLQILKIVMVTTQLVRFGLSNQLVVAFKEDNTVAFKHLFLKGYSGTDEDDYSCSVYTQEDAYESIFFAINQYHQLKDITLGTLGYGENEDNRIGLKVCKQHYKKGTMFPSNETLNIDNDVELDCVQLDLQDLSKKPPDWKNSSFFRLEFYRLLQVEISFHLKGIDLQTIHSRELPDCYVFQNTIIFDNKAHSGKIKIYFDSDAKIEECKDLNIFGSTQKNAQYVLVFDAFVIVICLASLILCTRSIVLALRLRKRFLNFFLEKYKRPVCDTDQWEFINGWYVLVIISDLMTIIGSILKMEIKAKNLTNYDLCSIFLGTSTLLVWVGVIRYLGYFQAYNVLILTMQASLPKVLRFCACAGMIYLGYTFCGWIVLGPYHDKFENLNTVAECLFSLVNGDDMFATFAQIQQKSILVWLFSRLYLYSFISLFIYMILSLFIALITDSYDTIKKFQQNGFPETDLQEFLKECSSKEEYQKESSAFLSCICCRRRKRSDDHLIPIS
Assay: Fluorescent TRPML2 assay (performed as for TRPML1, substituting the TRPML2 subtype)
Format: cell-based
Settings: fluorescent calcium assay
Protocol: HEK-293 Trex cells were stably transfected with a construct consisting of the human coding sequence for TRPML1 cloned into the […] plasmid pCDNA5 T/O. Mutations were introduced into the TRPML1 sequence to facilitate expression on the cell surface (Silvia Vergarajauregui, Rosa Puertollano, Traffic. 2006 March; 7(3): 337-353). […] The Trypsin-EDTA is diluted with growth media, and cells are counted. […] EC50 values were calculated using a non-linear regression of Prism. […]
assayReadout: EC50

1. C[C@H]1CN(C(=O)OC(C)(C)C)CCN1c1ncnc2c1c(C1CC1)cn2C1CCCN(C#N)C1 (stereo partly shown) [Compound 410] = > 2000 nM
2. C[C@H]1CN(C(=O)OC(C)(C)C)CCN1c1ncnc2c1c(-c1cnccn1)cn2-c1cccc(Cl)c1 [Compound 120] = 100 to 500 nM
3. Cc1nccnc1-c1cn(-c2cc(F)c(F)c(F)c2)c2ncnc(N3CCN(C(=O)OC(C)(C)C)C[C@@H]3C)c12 [Compound 305] = > 2000 nM
4. CC(C)(C)OC(=O)N1CCN(c2ncnc3c2c(C2CC2)cn3-c2ccc(F)c(F)c2)CC1 [Compound 113] = 500 to 2000 nM
5. C[C@@H]1CN(c2ncnc3c2c(N2CCC(F)(F)C2)cn3-c2cccc(Cl)c2)CCN1C(=O)OC(C)(C)C [Compound 300] = 500 to 2000 nM

Test system TRPML2 (Homo sapiens); read-out EC50; what value for C[C@H]1CN(C(=O)OC(C)(C)C)CCN1c1ncnc2c1c(CN1CCCC1)cn2-c1cccc(C#N)c1 [Compound 400] ?
> 2000 nM

Test system TRPML2 (Homo sapiens); read-out EC50; what value for CC(C)(C)OC(=O)N1CCN(c2ncnc3c2c(C2CC2)cn3-c2cc(F)c(F)c(F)c2)CC1 [Compound 234] ?
500 to 2000 nM

Test system TRPML2 (Homo sapiens); read-out EC50; what value for Cc1nccnc1-c1cn(-c2cc(F)cc(F)c2)c2ncnc(N3CCN(C(=O)OC(C)(C)CF)[C@H](C)C3)c12 [Compound 250] ?
> 2000 nM

Test system TRPML2 (Homo sapiens); read-out EC50; what value for C[C@H]1CN(C(=O)OC(C)(C)C(F)(F)F)CCN1c1ncnc2c1c(-c1ccccc1)cn2-c1cnn(C)c1 [Compound 183] ?
500 to 2000 nM

Test system TRPML2 (Homo sapiens); read-out EC50; what value for C[C@@H]1CN(c2ncnc3c2c(C2CC2)nn3-c2cc(F)cc(F)c2)CCN1C(=O)OC(C)(C)C [Compound 239] ?
500 to 2000 nM

Test system TRPML2 (Homo sapiens); read-out EC50; what value for Cc1nccnc1-c1cn(-c2cc(F)cc(F)c2)c2ncnc(N3CCN(C(=O)OC(C)(C)CF)C[C@@H]3C)c12 [Compound 248] ?
> 2000 nM

Test system TRPML2 (Homo sapiens); read-out EC50; what value for C[C@H]1CN(C(=O)OC(C)(C)C)CCN1c1ncnc2c1c(C1CC1)cn2-c1ccc(C#N)n1C [Compound 456] ?
500 to 2000 nM

Test system TRPML2 (Homo sapiens); read-out EC50; what value for C[C@H]1CN(C(=O)OC(C)(C)C)CCN1c1ncnc2c1c(C1CC1)cn2-c1cc(F)cc(F)c1 [Compound 203] ?
100 to 500 nM

Test system TRPML2 (Homo sapiens); read-out EC50; what value for C[C@H]1CN(C(=O)OC(C)(C)C)CCN1c1ncnc2c1c(-c1cccnc1)cn2-c1ccc(F)c(Cl)c1 [Compound 212] ?
100 to 500 nM

Test system TRPML2 (Homo sapiens); read-out EC50; what value for C[C@H]1CN(C(=O)OC(C)(C)C)CCN1c1ncnc2c1c(-c1ccccc1)cn2-c1cnn(C)c1 [Compound 170] ?
500 to 2000 nM

----------
Entries and their pEC50 values follow.
target: TRPML1 (Homo sapiens); assay: Fluorescent TRPML1 assay (Fluo4-AM calcium fluorescence in doxycycline-induced HEK-293 Trex cells); type: cell-based; settings: fluorescent calcium assay
Sequence (Q9GZU1 whole entry L15A/L16A/L577A/L578A, form open): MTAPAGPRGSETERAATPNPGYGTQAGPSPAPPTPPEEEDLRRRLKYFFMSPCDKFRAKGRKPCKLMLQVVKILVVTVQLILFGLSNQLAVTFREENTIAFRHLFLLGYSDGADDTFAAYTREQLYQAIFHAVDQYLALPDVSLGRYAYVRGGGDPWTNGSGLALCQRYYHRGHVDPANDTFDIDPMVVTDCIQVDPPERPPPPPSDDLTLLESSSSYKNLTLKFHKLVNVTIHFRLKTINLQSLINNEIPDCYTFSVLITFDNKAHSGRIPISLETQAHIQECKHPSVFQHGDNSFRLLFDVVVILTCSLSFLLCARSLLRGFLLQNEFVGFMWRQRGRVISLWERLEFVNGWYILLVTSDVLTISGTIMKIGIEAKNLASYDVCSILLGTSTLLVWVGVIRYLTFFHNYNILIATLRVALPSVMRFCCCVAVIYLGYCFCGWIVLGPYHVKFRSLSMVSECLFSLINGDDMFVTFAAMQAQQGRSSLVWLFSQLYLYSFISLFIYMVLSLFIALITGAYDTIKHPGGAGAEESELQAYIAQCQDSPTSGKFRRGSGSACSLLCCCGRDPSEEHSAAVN
pEC50: −log10 of the molar value.

// below: answered compounds
1. CC(C)(C)OC(=O)N1CCN(c2ncnc3c2c(C2CC2)cn3-c2cc(F)c(F)c(F)c2)CC1 = 6.30 to 7.00
2. CC1CN(C(=O)OC(C)(C)C)CCN1c1ncnc2c1c(C1CCOCC1)cn2-c1cccc(Cl)c1 (stereo not shown) = > 7.00
3. CC(C)(C)OC(=O)N1CC2(C1)CN(c1ncnc3c1c(C1CC1)cn3-c1cc(Cl)cc(Cl)c1)C2 = 5.70 to 6.30

Could you share which pEC50 value was measured for "C[C@H]1CN(C(=O)OC(C)(C)C)CCN1c1ncnc2c1c(C1CC1)cn2C1CCCCC1" ?
6.30 to 7.00

----------
Biological target: TRPML2 (Homo sapiens)
Construct: expressed in transfected cells
Assay: Fluorescent TRPML2 assay (performed as for TRPML1, substituting the TRPML2 subtype)
Type: cell-based
Settings: fluorescent calcium assay
Procedure: HEK-293 Trex cells were stably transfected with a construct consisting of the human coding sequence for TRPML1 cloned into the […] plasmid pCDNA5 T/O. Mutations were introduced into the TRPML1 sequence to facilitate expression on the cell surface (Silvia Vergarajauregui, Rosa Puertollano, Traffic. 2006 March; 7(3): 337-353). […] The Trypsin-EDTA is diluted with growth media, and cells are counted. […] EC50 values were calculated using a non-linear regression of Prism. […]
assayReadout: EC50

1) C[C@H]1CN(C(=O)OC(C)(C)C)CCN1c1ncnc2c1c(C1CCCC1)cn2-c1cccc(Cl)c1 [Compound 158] = < 100 nM

Could you share which EC50 value was measured for C[C@@H]1CN(C(=O)OC(C)(C)C)CCN1c1ncnc2c1c(N1CCCC1)cn2-c1cc(F)cc(F)c1 [Compound 255] ?
500 to 2000 nM

Could you share which EC50 value was measured for C[C@H]1CN(C(=O)OC(C)(C)C)CCN1c1ncnc2c1c(N1CCCC1)cn2C1CCCC1 [Compound 338] ?
> 2000 nM

Could you share which EC50 value was measured for CC(C)(C)OC(=O)N1CCN(c2nccc3c2c(-c2ccccc2F)cn3-c2cncnc2)CC1 [Compound 171] ?
> 2000 nM

----------
Entries and their pEC50 values follow.
target: TRPML2 (Homo sapiens, UniProt Q8IZK6); construct: expressed in transfected cells; test: Fluorescent TRPML2 assay (performed as for TRPML1, substituting the TRPML2 subtype); type: cell-based; conditions: fluorescent calcium assay
pEC50: −log10 of the molar value.

1) C[C@H]1CN(C(=O)OC(C)(C)C)CCN1c1ncnc2c1c(-c1nccnc1C#N)cn2-c1cccc(Cl)c1 = 5.70 to 6.30

Could you share which pEC50 value was measured for "C[C@H]1CN(C(=O)OC(C)(C)C)CCN1c1ncnc2c1c(C1CC1)cn2C1CCCCC1" ?
< 5.70

Could you share which pEC50 value was measured for "Cc1c(F)cc(-n2cc(N3CCCC3)c3c(N4CCN(C(=O)OC(C)(C)C)C[C@@H]4C)ncnc32)cc1F" ?
5.70 to 6.30

Could you share which pEC50 value was measured for "Cc1nccnc1-c1cn(-c2ccc(F)cc2)c2ncnc(N3C[C@@H](C)N(C(=O)OC(C)(C)C)C[C@@H]3C)c12" ?
5.70 to 6.30

Could you share which pEC50 value was measured for "C[C@@H]1CN(c2ncnc3c2c(-c2cccnc2)cn3-c2cncc(C(F)(F)F)c2)[C@@H](C)CN1C(=O)OC(C)(C)C" ?
< 5.70

Could you share which pEC50 value was measured for "C[C@H]1CN(C(=O)OC(C)(C)C)CCN1c1ncnc2c1c(C1CC1)cn2-c1cccc(C#N)c1" ?
6.30 to 7.00

Could you share which pEC50 value was measured for "CC(C)(C)OC(=O)N1CCN(c2ncnc3c2c(C2CCOCC2)cn3-c2cccc(Cl)c2)CC1" ?
5.70 to 6.30
